Assay: NCI Yeast Anticancer Drug Screen. Data for the rad50 strain (AID 155);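 note: 0% = growth of vehicle-only cultures of the same strain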
Settings: S. cerevisiae rad50 strain growth inhibition; at 5.0 µM (retest, dose inferred, filed as 0.5); stronger effect = higher value
About 79,000 compounds went through this panel and 15% of them were active in at least one assay; those are over-represented in the sample as a whole.
Measured growth inhibition by item
Provide only the numeric value, understood in %.

MOLECULE: CCCCCCCCCCCCOP(=O)(N1CC1(C)C)N1CC1(C)C (configuration not stated)
MEASURED: 4
--
MOLECULE: O=C1C(Cl)=C(N2C(=O)CCC2=O)C(=O)c2ccccc21
MEASURED: 77

Indicate its recorded growth inhibition; the molecule in question is `Fc1cccc(NC(=S)SCc2ccc(Cl)cc2)c1`
20

Respond only with growth inhibition recorded for `[O-][n+]1c2ccccc2nc2cc(Cl)ccc21`
-114

Report growth inhibition for `CCCCCCCCCN1CCNC1=S`
-5

Give growth inhibition for the following molecule: `Cc1c(N=Nc2ccc(Br)cc2)c(-c2ccccc2)nn1C(=S)S`
-1

Assign growth inhibition to the following record: `CN1CCS(=O)(=O)C1=O`
3

Give growth inhibition for the following molecule: `CC(C)(C)c1ccc(O)c(CN(Cc2c(O)ccc3ccccc23)C2CCCCC2)c1`
22

Output growth inhibition of `Cc1ccc(C2=CC(=O)/C(=C\C(=O)c3ccc(Cl)cc3)O2)cc1`
31
